assay: qHTS assay to identify small molecule agonists of the farnesoid-X-receptor (FXR) signaling pathway - cell viability counter screen (AID 743218); settings: FXR-bla HEK293T viability, CellTiter-Glo luminescence, 16 h; series mostly up to 62.6 µM; note: nearly all actives have a fitted effect of over 45% in size
Records with an inconclusive call do not appear. Calls of active or inactive are those of the source. Calls come from the whole dose curve; as a rule, active = well fitted cell-killing curve with a large enough effect in the repeat runs; inconclusive = weak or mixed curves, or effect the other way; inactive = no such curve, though single readings can be large or run the other way.
The reply should be one of these categories: active, inactive

Completed entries (count: 2):
INSERT INTO results (compound, assigned_class) VALUES
  ('CCOP(=S)(OCC)Oc1cc(Cl)c(Br)cc1Cl', 'inactive'),
  ('S=C=NCc1ccccc1', 'inactive');

Prompt: What call does the record list for C#CCOC(C(=O)OCCN(C)C)(c1ccccc1)c1ccccc1 ?
Completion: inactive

Prompt: Now this one: CCOP(=O)(OCC)SCCSCC
Completion: inactive

Prompt: Now this one: CCN(C)N=O
Completion: inactive

Prompt: Now this one: CCOP(=O)(OCC)O/C(=C/Cl)c1ccc(Cl)cc1Cl
Completion: inactive

Prompt: Now this one: COc1cc(Cl)c(OC)cc1Cl
Completion: inactive
